CC50 values for the compounds below.
System: MT4
Experiment: Concentration required to reduce the viability of mock infected cells by 50%
Assay type: functional
Details: Homo sapiens
reported.metric: CC50

line_notation=c1nc(CN2CCCNCCNCCCNCC2)cnc1CN1CCCNCCNCCCNCC1 measurement="> 203 µM"
line_notation=c1cc(CN2CCCNCCNCCCNCC2)ncc1CN1CCCNCCNCCCNCC1 measurement="18 µM"
line_notation=c1ccc(-c2cc(CN3CCCNCCNCCCNCC3)cc(CN3CCCNCCNCCCNCC3)n2)cc1 measurement="> 203 µM"
line_notation=c1cc(CN2CCCNCCNCCCNCC2)nc(CN2CCCNCCNCCCNCC2)c1 measurement="> 409 µM"
line_notation=Nc1cc(CN2CCCNCCNCCCNCC2)ccc1CN1CCCNCCNCCCNCC1 measurement="> 179 µM"
line_notation=O=C(O)c1cc(CN2CCCNCCNCCCNCC2)cc(CN2CCCNCCNCCCNCC2)c1 measurement="> 200 µM"
line_notation=COC(=O)c1cc(CN2CCCNCCNCCCNCC2)ccc1CN1CCCNCCNCCCNCC1 measurement="> 198 µM"
line_notation=c1ccc2c(CN3CCCNCCNCCCNCC3)cc(CN3CCCNCCNCCCNCC3)cc2c1 measurement="207 µM"
line_notation=c1cc(CN2CCCNCCNCCCNCC2)ccc1CN1CCCNCCNCCCNCC1 measurement="> 421 µM"
line_notation=c1ncc(CN2CCCNCCNCCCNCC2)cc1CN1CCCNCCNCCCNCC1 measurement="> 395 µM"
line_notation=c1cc(CN2CCCNCCNCCCNCC2)cc(CN2CCCNCCNCCCNCC2)n1 measurement="17 µM"
line_notation=O=C(O)c1cc(CN2CCCNCCNCCCNCC2)ccc1CN1CCCNCCNCCCNCC1 measurement="> 200 µM"
